# EXPERIMENTAL DETAILS: Pharmacokinetics (PK) in mouse, I.V. and oral
# Assay type: in vivo, CD-1 mice
# MEASUREMENT CONTEXT: CD-1, plasma, oral 10 mg/kg
# Method: PK tests were performed with CD-1 mice, using 4 animals per molecule tested, 2 animals for pharmacokinetic analysis by intravenous (IV) administration and 2 animals for oral administration. The treatment was carried out in a single dose: I.V. group with dose of 1 mg/kg and Oral group with dose of 10 mg/kg. […] Blood collection was performed after euthanasia at 08 defined time points and at 24 hours post-dose. […]
MEASUREMENT TYPE: AUC(0-t) (ng·h/mL)
The response must be a number in ng·h/mL with no trailing unit.

[ask] Param item = COc1ccc2cccc(CCNC(C)=O)c2c1 [IA2-76, agomelatine, reference compound] ; retrieve measured AUC(0-t).
[reply] 30.3

----------
# ASSAY SYSTEM: CYP2B6 (Homo sapiens (Human), UniProt P20813)
# Sequence (P20813 whole entry): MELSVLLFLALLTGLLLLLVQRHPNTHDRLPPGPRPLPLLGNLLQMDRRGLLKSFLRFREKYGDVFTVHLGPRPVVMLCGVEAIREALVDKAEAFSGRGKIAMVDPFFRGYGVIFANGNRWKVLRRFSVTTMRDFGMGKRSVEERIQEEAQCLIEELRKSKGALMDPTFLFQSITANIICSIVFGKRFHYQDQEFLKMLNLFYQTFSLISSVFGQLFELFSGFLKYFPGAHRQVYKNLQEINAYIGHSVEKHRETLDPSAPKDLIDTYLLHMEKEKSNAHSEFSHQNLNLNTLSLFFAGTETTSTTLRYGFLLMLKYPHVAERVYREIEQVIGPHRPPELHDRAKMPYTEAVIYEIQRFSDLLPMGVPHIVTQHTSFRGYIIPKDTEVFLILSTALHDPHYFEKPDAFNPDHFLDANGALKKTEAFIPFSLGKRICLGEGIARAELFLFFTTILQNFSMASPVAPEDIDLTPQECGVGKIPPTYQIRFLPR
# EXPERIMENTAL DETAILS: CYP inhibition, fluorogenic substrate
# Format: in vitro ADME
# Parameters: dose or concentration left out as unconfirmed
# MEASUREMENT CONTEXT: recombinant CYP2B6, pH 7.4
MEASUREMENT TYPE: inhibition (%)
The response must be a number in % with no trailing unit.

Solved entries (count: 5):
- MOLECULE: "COc1cc2c(cc1Cl)nc(OC)n2CCNC(C)=O"
  inhibition, %: -1.1
- MOLECULE: "COc1ccc2cccc(CCNC(C)=O)c2c1 [IA2-76, agomelatine, reference compound]"
  inhibition, %: 1.8
- MOLECULE: "CCOc1nc2ccc(OC)cc2n1CCCNC(C)=O"
  inhibition, %: 7.9
- MOLECULE: "CCOc1nc2cc(Cl)c(OC)cc2n1CCNC(C)=O"
  inhibition, %: 8.4
- MOLECULE: "COc1ccc2nc(OC)n(CCCNC(C)=O)c2c1"
  inhibition, %: 0.4

Then this molecule:
[ask] Param item = `CCOc1nc2cc(Cl)c(OC)cc2n1CCCNC(C)=O` ; retrieve measured inhibition.
[reply] 0.5

----------
# ASSAY SYSTEM: CYP2C19 (Homo sapiens (Human), UniProt P33261)
# Sequence (P33261 whole entry): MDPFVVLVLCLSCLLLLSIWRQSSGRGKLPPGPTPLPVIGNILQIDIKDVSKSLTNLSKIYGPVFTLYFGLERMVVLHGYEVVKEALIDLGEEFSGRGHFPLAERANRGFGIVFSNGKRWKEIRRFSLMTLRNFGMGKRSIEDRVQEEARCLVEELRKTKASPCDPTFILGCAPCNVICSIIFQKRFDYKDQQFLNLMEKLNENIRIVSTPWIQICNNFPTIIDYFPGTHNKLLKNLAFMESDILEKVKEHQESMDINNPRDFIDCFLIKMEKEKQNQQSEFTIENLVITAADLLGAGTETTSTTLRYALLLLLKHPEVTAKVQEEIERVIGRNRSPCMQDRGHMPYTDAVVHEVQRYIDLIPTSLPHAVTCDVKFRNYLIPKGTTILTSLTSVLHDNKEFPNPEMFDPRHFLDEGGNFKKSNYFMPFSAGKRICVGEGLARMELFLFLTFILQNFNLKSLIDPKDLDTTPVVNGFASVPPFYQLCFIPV
# EXPERIMENTAL DETAILS: CYP inhibition, fluorogenic substrate
# Format: in vitro ADME
# Set-up: dose or concentration left out as unconfirmed
# MEASUREMENT CONTEXT: recombinant CYP2C19, pH 7.4
Recorded inhibition for the following compounds
The response must be a number in % with no trailing unit.

- COMPOUND: "CCOc1nc2ccc(OC)cc2n1CCCNC(C)=O"
  inhibition, %: 6.4
- COMPOUND: "CCOc1nc2cc(Cl)c(OC)cc2n1CCCNC(C)=O"
  inhibition, %: 27.7
- COMPOUND: "COc1ccc2cccc(CCNC(C)=O)c2c1 [IA2-76, agomelatine, reference compound]"
  inhibition, %: 44.4
- COMPOUND: "COc1cc2c(cc1Cl)nc(OC)n2CCNC(C)=O"
  inhibition, %: 10

[ask] Param item = `CCOc1nc2cc(Cl)c(OC)cc2n1CCNC(C)=O` ; retrieve measured inhibition.
[reply] 33.8

[ask] Param item = `COc1ccc2nc(OC)n(CCCNC(C)=O)c2c1` ; retrieve measured inhibition.
[reply] 7.2

----------
# EXPERIMENTAL DETAILS: Water solubility (shake-flask, PBS pH 7.4)
# Type: physicochemical
# MEASUREMENT CONTEXT: aqueous buffer, thermodynamic from solid
MEASUREMENT TYPE: solubility at 24 h (µM)
The response must be a number in µM with no trailing unit.

[ask] Param item = `CCOc1nc2cc(Cl)c(OC)cc2n1CCCNC(C)=O` ; retrieve measured solubility at 24 h.
[reply] 181

[ask] Param item = `COc1cc2c(cc1Cl)nc(OC)n2CCNC(C)=O` ; retrieve measured solubility at 24 h.
[reply] 197

[ask] Param item = `COc1ccc2nc(OC)n(CCCNC(C)=O)c2c1` ; retrieve measured solubility at 24 h.
[reply] 197

----------
# ASSAY SYSTEM: CYP2C9 (Homo sapiens (Human))
# Sequence (P11712 whole entry): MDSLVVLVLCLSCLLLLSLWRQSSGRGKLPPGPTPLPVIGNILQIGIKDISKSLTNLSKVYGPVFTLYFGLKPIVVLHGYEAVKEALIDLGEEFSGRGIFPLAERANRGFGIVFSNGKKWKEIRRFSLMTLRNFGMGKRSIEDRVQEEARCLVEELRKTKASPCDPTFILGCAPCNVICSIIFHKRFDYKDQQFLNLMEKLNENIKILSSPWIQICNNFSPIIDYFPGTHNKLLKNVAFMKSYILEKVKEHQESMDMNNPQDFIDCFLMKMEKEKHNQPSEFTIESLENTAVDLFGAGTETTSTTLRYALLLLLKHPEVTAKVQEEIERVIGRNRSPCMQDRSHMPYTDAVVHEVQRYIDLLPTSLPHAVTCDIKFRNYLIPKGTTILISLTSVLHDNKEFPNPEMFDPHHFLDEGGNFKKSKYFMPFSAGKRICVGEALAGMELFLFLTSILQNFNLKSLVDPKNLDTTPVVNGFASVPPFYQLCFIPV
# EXPERIMENTAL DETAILS: CYP inhibition, fluorogenic substrate
# Type: in vitro ADME
# Parameters: dose or concentration left out as unconfirmed
# MEASUREMENT CONTEXT: recombinant CYP2C9, pH 7.4
Recorded inhibition for the following compounds
The response must be a number in % with no trailing unit.

- COMPOUND: "COc1ccc2cccc(CCNC(C)=O)c2c1 [IA2-76, agomelatine, reference compound]"
  MEASUREMENT TYPE: "inhibition"
  U: "%"
  MEASURED: -19.3
- COMPOUND: "COc1ccc2nc(OC)n(CCCNC(C)=O)c2c1"
  MEASUREMENT TYPE: "inhibition"
  U: "%"
  MEASURED: 2.6
- COMPOUND: "COc1cc2c(cc1Cl)nc(OC)n2CCNC(C)=O"
  MEASUREMENT TYPE: "inhibition"
  U: "%"
  MEASURED: -9.6
- COMPOUND: "CCOc1nc2cc(Cl)c(OC)cc2n1CCCNC(C)=O"
  MEASUREMENT TYPE: "inhibition"
  U: "%"
  MEASURED: 13
- COMPOUND: "CCOc1nc2ccc(OC)cc2n1CCCNC(C)=O"
  MEASUREMENT TYPE: "inhibition"
  U: "%"
  MEASURED: 26.7

Then this compound:
[ask] Param item = `CCOc1nc2cc(Cl)c(OC)cc2n1CCNC(C)=O` ; retrieve measured inhibition.
[reply] 23.7

----------
# EXPERIMENTAL DETAILS: Pharmacokinetics (PK) in mouse, I.V. and oral
# Type: in vivo, CD-1 mice
# MEASUREMENT CONTEXT: CD-1, plasma, oral 10 mg/kg, read-out: Cmax
MEASUREMENT TYPE: Cmax (ng/mL)
The response must be a number in ng/mL with no trailing unit.

[ask] Param item = COc1ccc2cccc(CCNC(C)=O)c2c1 [IA2-76, agomelatine, reference compound] ; retrieve measured Cmax.
[reply] 21.9

----------
# EXPERIMENTAL DETAILS: Pharmacokinetics (PK) in mouse, I.V. and oral
# Type: in vivo, CD-1 mice
# MEASUREMENT CONTEXT: CD-1, plasma, intravenous 1 mg/kg
MEASUREMENT TYPE: half-life (min)
The response must be a number in min with no trailing unit.

[ask] Param item = COc1ccc2cccc(CCNC(C)=O)c2c1 [IA2-76, agomelatine, reference compound] ; retrieve measured half-life.
[reply] 8.94

----------
# EXPERIMENTAL DETAILS: Pharmacokinetics (PK) in mouse, I.V. and oral
# Format: in vivo, CD-1 mice
# MEASUREMENT CONTEXT: CD-1, plasma, intravenous 1 mg/kg
MEASUREMENT TYPE: clearance (mL/min/kg)
The response must be a number in mL/min/kg with no trailing unit.

[ask] Param item = COc1ccc2cccc(CCNC(C)=O)c2c1 [IA2-76, agomelatine, reference compound] ; retrieve measured clearance.
[reply] 116

----------
# EXPERIMENTAL DETAILS: Pharmacokinetics (PK) in rat, I.V. and oral
# Format: in vivo, Wistar-Han rats
# MEASUREMENT CONTEXT: Wistar-Han, plasma, intravenous 1 mg/kg
MEASUREMENT TYPE: half-life (min)
The response must be a number in min with no trailing unit.

[ask] Param item = COc1ccc2cccc(CCNC(C)=O)c2c1 [IA2-76, agomelatine, reference compound] ; retrieve measured half-life.
[reply] 17.7

----------
# EXPERIMENTAL DETAILS: Permeability in Caco-2 cells
# Format: in vitro ADME
# MEASUREMENT CONTEXT: human, Caco-2, pH 6.5; basolateral to apical, 40 min, 37° C.; read-out: Permeability B-A (pH 6.5/7.4)
MEASUREMENT TYPE: Papp B→A at 40 min (×10⁻⁶ cm/s)
The response must be a number in ×10⁻⁶ cm/s with no trailing unit.

Solved entries (count: 2):
- COMPOUND: "CCOc1nc2ccc(OC)cc2n1CCCNC(C)=O [IA2-120]"
  MEASUREMENT TYPE: "Papp B→A at 40 min"
  U: "×10⁻⁶ cm/s"
  MEASURED: 29.5
- COMPOUND: "COc1ccc2nc(OC)n(CCCNC(C)=O)c2c1 [IA2-140]"
  MEASUREMENT TYPE: "Papp B→A at 40 min"
  U: "×10⁻⁶ cm/s"
  MEASURED: 55.1

[ask] Param item = CCOc1nc2cc(Cl)c(OC)cc2n1CCNC(C)=O [IA2-121] ; retrieve measured Papp B→A at 40 min.
[reply] 32.1

[ask] Param item = CCOc1nc2cc(Cl)c(OC)cc2n1CCCNC(C)=O [IA2-142] ; retrieve measured Papp B→A at 40 min.
[reply] 57.8

[ask] Param item = COc1ccc2cccc(CCNC(C)=O)c2c1 [IA2-76, agomelatine, reference compound] ; retrieve measured Papp B→A at 40 min.
[reply] 48.5

[ask] Param item = COc1cc2c(cc1Cl)nc(OC)n2CCNC(C)=O [IA2-143] ; retrieve measured Papp B→A at 40 min.
[reply] 71.8
